Just for reference, patent EP1077967B1 is where these values come from.

- Test system: diabetic (ob/ob) mice
- Protocol Details: Blood glucose lowering in diabetic (ob/ob) mice
- Assay type: in vivo
- Measurement Setup: Mus musculus, po, dose 100 mg/Kg, plasma glucose, cells marked a = no significant activity (p<0.05) at this dose, read-out: % Change Glucose from Vehicle
Property Name: change in vivo at 100 mg/kg (%)

>  <Molecule>
O=C(c1ccccc1)c1oc2ccccc2c1-c1ccc(-c2ccc(OC(Cc3ccccc3)C(=O)O)cc2)cc1 (stereo not drawn)

>  <Val>
-39

$$$$
>  <Molecule>
C[C@@H](Oc1ccc(-c2ccc(-c3c(Cc4ccccc4)oc4ccccc34)cc2)cc1)C(=O)O

>  <Val>
13.7

$$$$
>  <Molecule>
CCCCc1sc2ccccc2c1-c1ccc(-c2ccc(OC(Cc3ccccc3)C(=O)O)cc2)cc1 (stereo not drawn)

>  <Val>
-27.5

$$$$
>  <Molecule>
O=C(O)[C@@H](Cc1ccccc1)Oc1ccc(-c2ccc(-c3c(Cc4ccc(F)cc4)sc4ccccc34)cc2)cc1

>  <Val>
-27.7

$$$$
>  <Molecule>
O=C(O)C(Cc1ccccc1)Oc1ccc(-c2ccc(-c3c(Cc4ccccc4)sc4ccccc34)cc2)cc1 (stereo not drawn)

>  <Val>
-36.7

$$$$
>  <Molecule>
O=C(O)C(Cc1ccccc1)Oc1ccc(-c2ccc(-c3c(Cc4ccccc4)oc4ccccc34)cc2)cc1 (stereo not drawn)

>  <Val>
-40.4

$$$$
>  <Molecule>
CCCCc1oc2ccccc2c1-c1ccc(-c2ccc(OC(Cc3ccccc3)C(=O)O)cc2)cc1 (stereo not drawn)

>  <Val>
-34.2

$$$$
>  <Molecule>
O=C(O)[C@H](Cc1ccccc1)Oc1ccc(-c2ccc(-c3c(Cc4ccccc4)oc4ccccc34)cc2)cc1

>  <Val>
-40.3

$$$$
>  <Molecule>
O=C(O)[C@@H](Cc1ccccc1)Oc1ccc(-c2ccc(-c3c(Cc4ccccc4)oc4ccccc34)cc2)cc1

>  <Val>
-35

$$$$

----------
- Study System: Human recombinant PTP1B (Homo sapiens, UniProt P18031)
- Construct: made in house
- Sequence (P18031 whole entry): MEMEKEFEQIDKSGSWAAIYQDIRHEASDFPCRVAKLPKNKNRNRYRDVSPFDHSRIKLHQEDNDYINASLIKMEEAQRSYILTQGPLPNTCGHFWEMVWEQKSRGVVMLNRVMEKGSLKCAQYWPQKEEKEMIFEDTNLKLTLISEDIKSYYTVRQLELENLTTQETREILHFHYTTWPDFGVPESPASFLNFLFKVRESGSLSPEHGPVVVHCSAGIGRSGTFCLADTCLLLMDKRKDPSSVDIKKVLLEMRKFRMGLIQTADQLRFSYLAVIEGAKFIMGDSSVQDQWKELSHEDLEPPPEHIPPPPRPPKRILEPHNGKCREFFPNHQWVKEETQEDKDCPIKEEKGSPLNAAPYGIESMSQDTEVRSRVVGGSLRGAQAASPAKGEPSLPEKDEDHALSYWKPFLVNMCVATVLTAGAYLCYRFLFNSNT
- Protocol Details: Inhibition of tri-phosphorylated insulin receptor dodecaphosphopeptide dephosphorylation by hPTP1B (malachite green)
- Type: biochemical
- Measurement Setup: recombinant PTP1B, dodecaphosphopeptide substrate
// IC50 lookup, one value per entry

>  <Smiles Representation>
COc1cccc(-c2cc(-c3ccc(-c4c(Cc5ccccc5)sc5ccccc45)cc3)cc(Br)c2OCC(=O)O)c1

>  <Study System>
Human recombinant PTP1B (Homo sapiens, UniProt P18031)

>  <IC50 / nM>
28

$$$$
>  <Smiles Representation>
COc1ccc(-c2cc(-c3ccc(-c4c(Cc5ccccc5)sc5ccccc45)cc3)cc(Br)c2OCC(=O)O)cc1OC

>  <Study System>
Human recombinant PTP1B (Homo sapiens, UniProt P18031)

>  <IC50 / nM>
47

$$$$
>  <Smiles Representation>
O=C(O)[C@@H](Cc1ccccc1)Oc1ccc(-c2ccc(-c3c(Cc4ccc(O)c(O)c4)sc4ccccc34)cc2)cc1

>  <Study System>
Human recombinant PTP1B (Homo sapiens, UniProt P18031)

>  <IC50 / nM>
122

$$$$
>  <Smiles Representation>
O=C(O)[C@H](Cc1ccccc1)Oc1ccc(-c2ccc(-c3c(Cc4ccccc4)oc4cccnc34)cc2)cc1

>  <Study System>
Human recombinant PTP1B (Homo sapiens, UniProt P18031)

>  <IC50 / nM>
590

$$$$
